- assayNotes: Residual rate (A90/A0×100) after 90 h accelerated deterioration in xenon weather meter X25, color developing durability
- Format: physicochemical
- protocolConditions: binder sheet (binder method); after 90 h accelerated deterioration
attributeMeasured: Residual rate (%)
// note: answer is a bare numeric in %

Example entries begin here.
CCCOc1ccc(C2(c3ccc(OC)cc3)C=Cc3c4c(c5cc(N6CCc7ccccc76)c(C)cc5c3O2)-c2ccc(-c3ccc(F)c(F)c3F)cc2C4(CCCCOC)CCCCOC)cc1F (centres unmarked) [Formula (78A)] = 82
COc1ccc(C2(c3ccc(N(c4ccccc4)c4ccccc4)cc3)C=Cc3c4c(c5cc(N6CCc7ccccc76)c(OC)cc5c3O2)-c2ccccc2C42CCC3(CCCCC3)CC2)cc1 (centres unmarked) [Formula (57A)] = 80
COc1ccc(C2(c3ccc(OC)cc3)C=Cc3c4c(c5cc(N6CCc7ccccc76)c(-c6ccc(OC)cc6OC)cc5c3O2)-c2ccccc2C4(C)C)cc1 [Formula (I), reference compound] = 84
COc1ccc(C2(c3ccc(OC)cc3)C=Cc3c4c(c5cc(N6CCc7cc(C)ccc76)c(OC)cc5c3O2)-c2ccccc2C4(C)C)cc1 [Formula (52A)] = 92

// Residual rate lookup, key: CCC1(CC)CCC2(CC1)c1cc(OC(F)(F)F)ccc1-c1c2c2c(c3cc(OC)c(N4CCc5ccccc54)cc13)OC(c1ccc(OC)cc1)(c1ccc(OCCCO[Si](C)(C)CC[Si](O[Si](C)(C)C)(O[Si](C)(C)C)O[Si](C)(C)C)cc1)C=C2 (centres unmarked) [Formula (74A)]
83
